# Test system: spontaneously hypertensive rats (SHR)
# procedure-details: Antihypertensive activity (blood pressure after oral administration)
# Format: in vivo
# condition-context: Rattus norvegicus; SHR, oral 30 mg/kg, 2 hrs, decrease vs before; read-out: Blood pressure 2 hrs [Decrease]
property-name: inhibition in vivo at 30 mg/kg (%)
Kindly provide the numeric value in % only, without the unit symbol.

Provide inhibition in vivo at 30 mg/kg value for the following compound: `CNc1nc(C)nc2c1ncn2[C@@H]1O[C@H](CO)[C@@H](O)[C@H]1OC`
23.9

Provide inhibition in vivo at 30 mg/kg value for the following compound: `CO[C@@H]1[C@H](O)[C@@H](CO)O[C@H]1n1cnc2c(N)nc(F)nc21`
45.9

Provide inhibition in vivo at 30 mg/kg value for the following compound: `CNc1ncnc2c1ncn2[C@@H]1O[C@H](CO)[C@@H](O)[C@H]1OC`
17.1

Provide inhibition in vivo at 30 mg/kg value for the following compound: `COC[C@H]1O[C@@H](n2cnc3c(N)ncnc32)[C@H](O)[C@@H]1O`
18.2

Provide inhibition in vivo at 30 mg/kg value for the following compound: `CCO[C@@H]1[C@H](O)[C@@H](CO)O[C@H]1n1cnc2c(N)nc(C)nc21`
23.6

Provide inhibition in vivo at 30 mg/kg value for the following compound: `CNc1ncnc2c1ncn2[C@@H]1O[C@H](COC)[C@@H](O)[C@H]1O`
43
